# EN PA (Influenza A virus, UniProt P15659): IC50 values follow

>  <compound>
CNC(=O)c1nn(CC2(n3ccc4cc(C)cnc43)CCCC2)cc(O)c1=O [Compound 872]

>  <target-or-system>
EN PA (Influenza A virus, UniProt P15659)

>  <IC50>
< 100 nM

$$$$
>  <compound>
COc1ccc(CCn2cc(O)c(=O)c(C(=O)O)n2)cc1 [Compound 415]

>  <target-or-system>
EN PA (Influenza A virus, UniProt P15659)

>  <IC50>
100 to 1000 nM

$$$$
>  <compound>
O=C(O)c1nn(-c2ccc3[nH]ncc3c2)cc(O)c1=O [Compound 42]

>  <target-or-system>
EN PA (Influenza A virus, UniProt P15659)

>  <IC50>
100 to 1000 nM

$$$$
>  <compound>
CCc1cccc(C2(Cn3cc(O)c(=O)c(C(=O)NC)n3)CCCC2)c1 [Compound 733]

>  <target-or-system>
EN PA (Influenza A virus, UniProt P15659)

>  <IC50>
< 100 nM

$$$$

Param readout = IC50; param system = EN PA (Influenza A virus, UniProt P15659); param query = O=C(NC1CC1)c1nn(CC2(n3cc(C(F)(F)F)c4cccnc43)CCCC2)cc(O)c1=O [Compound 682] ; response: value
< 100 nM

Entry O=C1NCCCCCOc2cccc(c2)C2(CCCC2)Cn2cc(O)c(=O)c1n2 [Compound 895] , system EN PA (Influenza A virus, UniProt P15659): what IC50 was measured?
< 100 nM

# returns recorded IC50 (system: EN PA (Influenza A virus, UniProt P15659)) for Cn1ccc2ccc(-c3ccccc3-n3cc(O)c(=O)c(C(=O)O)n3)cc21 [Compound 324]
100 to 1000 nM

Report IC50 for CC1CCCN(c2ccccc2-n2cc(O)c(=O)c(C(=O)O)n2)C1 (centres unmarked) [Compound 210] tested on EN PA (Influenza A virus, UniProt P15659).
100 to 1000 nM

API: value(readout= IC50, system= EN PA (Influenza A virus, UniProt P15659), query= CNC(=O)c1nn(CC2(c3cccc(Cl)c3)CCCC2)cc(O)c1=O [Compound 700] )
< 100 nM

* * *

pIC50: −log10 of the molar value.
The following are reported pIC50 results, target or system EN PA (Influenza A virus, UniProt P15659).

Please review the entries below; each comes with its answer.
>  <compound>
Cc1cn(C2(Cn3cc(O)c(=O)c(C(=O)NCCO)n3)CCCC2)c2ncccc12 [Compound 761]

>  <measured>
> 7.00

$$$$
>  <compound>
CC(C)c1cccc(C2(Cn3cc(O)c(=O)c(C(N)=O)n3)CCCC2)c1 [Compound 730]

>  <measured>
> 7.00

$$$$
>  <compound>
Cc1cn(C2(Cn3cc(O)c(=O)c(C(=O)NCCNC(=O)OC(C)(C)C)n3)CCCC2)c2ncccc12 [Compound 876]

>  <measured>
> 7.00

$$$$
>  <compound>
CC1(C)CCCN(c2ccccc2-n2cc(O)c(=O)c(C(=O)O)n2)C1 [Compound 209]

>  <measured>
6.00 to 7.00

$$$$
>  <compound>
O=C(NC1CCCCC1)c1nn(CC2(c3cccc(C(F)(F)F)c3)CCCC2)cc(O)c1=O [Compound 516]

>  <measured>
6.00 to 7.00

$$$$
>  <compound>
O=C(NCc1ccccc1)c1nn(CC2(c3ccc(Cl)cc3)CCCC2)cc(O)c1=O [Compound 804]

>  <measured>
> 7.00

$$$$
>  <compound>
O=C(NCc1ccc(F)c(Cl)c1)c1nn(CC2(c3cccnc3)CCCC2)cc(O)c1=O [Compound 802]

>  <measured>
> 7.00

$$$$
>  <compound>
CNC(=O)c1nn(CC2(n3ccc4cc(C5CC5)cnc43)CCCC2)cc(O)c1=O [Compound 754]

>  <measured>
> 7.00

$$$$
>  <compound>
O=C(NCc1cccnc1)c1nn(CC2(c3ccccc3)CCCC2)cc(O)c1=O [Compound 664]

>  <measured>
6.00 to 7.00

$$$$
>  <compound>
Cc1ccc(C)c(-c2ccccc2-n2cc(O)c(=O)c(C(=O)O)n2)c1 [Compound 300]

>  <measured>
6.00 to 7.00

$$$$

Could you share what pIC50 was measured for CNC(=O)c1nn(CC2c3ccccc3CCc3ccccc32)cc(O)c1=O [Compound 670] , tested on EN PA (Influenza A virus, UniProt P15659)?
6.00 to 7.00

Quick check: pIC50 on EN PA (Influenza A virus, UniProt P15659), item COc1cc(Cl)cc(-c2ccccc2-n2cc(O)c(=O)c(C(=O)O)n2)c1 [Compound 323] ?
6.00 to 7.00

Notebook entry, EN PA (Influenza A virus, UniProt P15659) assay: pIC50 of CCOC(=O)[C@H]1[C@@H]2CC(Cn3cc(O)c(=O)c(C(=O)NC)n3)(n3cc(C)c4cccnc43)C[C@@H]21 (stereo partly shown) [Compound 874] = ?
6.00 to 7.00

Short answer please: pIC50, EN PA (Influenza A virus, UniProt P15659), entry CN(C)C(=O)c1nn(CC2(c3cccc(C(F)(F)F)c3)CCCC2)cc(O)c1=O [Compound 504]
≤ 6.00

Form field: pIC50 recorded for O=C(NCc1ccc(F)c(Cl)c1)c1nn(CC2(c3cccc(Cl)c3)CCCC2)cc(O)c1=O [Compound 750] with EN PA (Influenza A virus, UniProt P15659) (enter value)
> 7.00

Tell me reported pIC50 for CNC(=O)c1nn(CC2(c3ccccc3)CCCC2)cc(O)c1=O [Compound 627] , tested with EN PA (Influenza A virus, UniProt P15659).
6.00 to 7.00

Record NC(=O)c1nn(CC2(c3ccccc3)CCCC2)cc(O)c1=O [Compound 708] : what is its pIC50 with EN PA (Influenza A virus, UniProt P15659)?
> 7.00

Enter reported pIC50 observed with EN PA (Influenza A virus, UniProt P15659) for CNC(=O)c1nn(-c2ccc3c(c2)OCCO3)cc(O)c1=O [Compound 601]
≤ 6.00

Which pIC50 is reported with EN PA (Influenza A virus, UniProt P15659) for this entry: O=C(O)c1nn(CC2(c3cccc(C(F)(F)F)c3)CCCC2)cc(O)c1=O [Compound 406] ?
> 7.00

Tell me reported pIC50 for O=C(O)c1nn(CCc2c[nH]c3ccccc23)cc(O)c1=O [Compound 407] , tested with EN PA (Influenza A virus, UniProt P15659).
6.00 to 7.00

Could you share what pIC50 was measured for O=C(O)c1nn(-c2ccccc2-c2ccccc2Oc2ccccc2)cc(O)c1=O [Compound 311] , tested on EN PA (Influenza A virus, UniProt P15659)?
> 7.00

# value lookup — system EN PA (Influenza A virus, UniProt P15659), readout pIC50, item O=C(O)c1nn(-c2ccccc2N2CCCC(c3ccccc3)C2)cc(O)c1=O (stereo not shown) [Compound 211]
6.00 to 7.00

* * *

target-or-system: EN PA (Influenza A virus, UniProt P15659)
# Lookup of reported IC50 keyed by entry

Some solved entries appear below for comparison.
>  <compound-structure>
CCCc1cnc2c(ccn2C2(Cn3cc(O)c(=O)c(C(=O)NC)n3)CCCC2)c1

>  <IC50>
< 100 nM

$$$$
>  <compound-structure>
O=C(NCC1CC1)c1nn(CC2(c3ccccc3)CCCC2)cc(O)c1=O

>  <IC50>
< 100 nM

$$$$
>  <compound-structure>
O=C(O)c1nn(-c2ccccc2N2CCOCC2)cc(O)c1=O

>  <IC50>
100 to 1000 nM

$$$$
>  <compound-structure>
CNC(=O)c1nn(CC2(n3cc(C4CC4)c4cccnc43)CCCC2)cc(O)c1=O

>  <IC50>
< 100 nM

$$$$
>  <compound-structure>
O=C(NCc1ccncc1)c1nn(CC2(c3ccccc3)CCCC2)cc(O)c1=O

>  <IC50>
< 100 nM

$$$$

For the next question, use this compound.
So what IC50 did `CNC(=O)c1nn(-c2ccccc2N2CCCC(C)(C)C2)cc(O)c1=O` get with EN PA (Influenza A virus, UniProt P15659)?
≥ 1000 nM

* * *

The entries below are paired with their reported IC50.
target-or-system: UniProt P15659
procedure-text: EN PA FRET Inhibition Assay
Type: biochemical
conditions: read-out: Potency

Below: 4 molecules and their reported IC50.
>  <molecule>
CCn1cc(CNC(=O)c2nn(CC3(c4cccc(C(F)(F)F)c4)CCCC3)cc(O)c2=O)cn1 [Compound 650]

>  <IC50>
< 100 nM

$$$$
>  <molecule>
CNC(=O)c1nn(CC2(c3ccc(F)c(C(F)(F)F)c3)CCCC2)cc(O)c1=O [Compound 783]

>  <IC50>
< 100 nM

$$$$
>  <molecule>
CNC(=O)c1nn(-c2ccccc2-c2ccc3ccn(C)c3c2)cc(O)c1=O [Compound 618]

>  <IC50>
≥ 1000 nM

$$$$
>  <molecule>
CNC(=O)c1nn(CC2(c3cccc(OC)c3)CCCC2)cc(O)c1=O [Compound 703]

>  <IC50>
< 100 nM

$$$$

Would you kindly look at the next entry?
So what does the record say about IC50 for O=C(O)c1nn(CCc2ccccc2)cc(O)c1=O [Compound 401] ?
100 to 1000 nM
